meta.source: ChEMBL document CHEMBL1139308

# experimental-system: UniProtKB Q8NER1
# Sequence (Q8NER1 whole entry): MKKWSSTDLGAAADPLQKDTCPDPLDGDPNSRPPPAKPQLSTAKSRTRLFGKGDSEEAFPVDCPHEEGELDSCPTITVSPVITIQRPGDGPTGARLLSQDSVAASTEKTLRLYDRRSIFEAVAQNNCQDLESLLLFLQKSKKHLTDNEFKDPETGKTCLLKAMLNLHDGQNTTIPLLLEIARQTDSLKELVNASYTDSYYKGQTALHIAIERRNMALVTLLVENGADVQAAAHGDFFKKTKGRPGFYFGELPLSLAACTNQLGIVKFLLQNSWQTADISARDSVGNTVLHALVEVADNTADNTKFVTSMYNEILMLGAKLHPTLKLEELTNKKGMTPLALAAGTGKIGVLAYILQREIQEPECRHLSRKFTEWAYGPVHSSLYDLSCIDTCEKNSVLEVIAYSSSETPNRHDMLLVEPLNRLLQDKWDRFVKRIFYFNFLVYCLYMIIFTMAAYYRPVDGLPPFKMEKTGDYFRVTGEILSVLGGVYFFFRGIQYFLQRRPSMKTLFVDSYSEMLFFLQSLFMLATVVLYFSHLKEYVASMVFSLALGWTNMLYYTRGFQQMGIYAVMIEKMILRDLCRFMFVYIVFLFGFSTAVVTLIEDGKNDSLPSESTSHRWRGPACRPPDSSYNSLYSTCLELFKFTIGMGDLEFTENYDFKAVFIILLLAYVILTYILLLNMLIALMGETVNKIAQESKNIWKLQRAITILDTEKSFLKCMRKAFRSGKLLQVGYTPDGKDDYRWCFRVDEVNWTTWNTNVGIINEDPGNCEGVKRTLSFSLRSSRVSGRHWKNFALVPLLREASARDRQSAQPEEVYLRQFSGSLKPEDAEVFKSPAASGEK
# assay-text: Antagonist activity at human TRPV1 expressed in HEK293 cells assessed as inhibition of capsaicin-induced calcium flux
# Assay type: functional, cell-based
pIC50: −log10 of the molar value.
measured-parameter: pIC50

CC(C)Nc1nc(Nc2ccc(C(F)(F)F)cc2)c2nc(Nc3c(Cl)cccc3Cl)sc2n1 | 7.89
CSc1nc(Nc2ccc(C(F)(F)F)cc2)c2nc(Nc3c(Cl)cccc3Cl)sc2n1 | 6.65
CC(C)(C(=O)O)c1ccc(Nc2ncnc3sc(Nc4c(Cl)cccc4Cl)nc23)cc1 | 7.51
CC(C)(C)c1ccc(Nc2ncnc3sc(Nc4c(Cl)cccc4Cl)nc23)cc1 | 7.96
CSc1ccccc1Nc1nc2c(Nc3ccc(C(F)(F)F)cc3)ncnc2s1 | 7.37

a. Cc1cccc(C)c1Nc1nc2c(Nc3ccc(C(F)(F)F)cc3)ncnc2s1
b. CS(=O)(=O)c1ccc(Nc2ncnc3sc(Nc4c(Cl)cccc4Cl)nc23)cc1
q: Kindly identify which of a and b has the larger recorded pIC50 value. Indicate which entry you chose by stating its label.
a: b
(b: 8.30, a: 7.64)

---

# experimental-system: Transient receptor potential cation channel subfamily V member 1 (Rattus norvegicus, UniProt O35433)
# Sequence (O35433 whole entry): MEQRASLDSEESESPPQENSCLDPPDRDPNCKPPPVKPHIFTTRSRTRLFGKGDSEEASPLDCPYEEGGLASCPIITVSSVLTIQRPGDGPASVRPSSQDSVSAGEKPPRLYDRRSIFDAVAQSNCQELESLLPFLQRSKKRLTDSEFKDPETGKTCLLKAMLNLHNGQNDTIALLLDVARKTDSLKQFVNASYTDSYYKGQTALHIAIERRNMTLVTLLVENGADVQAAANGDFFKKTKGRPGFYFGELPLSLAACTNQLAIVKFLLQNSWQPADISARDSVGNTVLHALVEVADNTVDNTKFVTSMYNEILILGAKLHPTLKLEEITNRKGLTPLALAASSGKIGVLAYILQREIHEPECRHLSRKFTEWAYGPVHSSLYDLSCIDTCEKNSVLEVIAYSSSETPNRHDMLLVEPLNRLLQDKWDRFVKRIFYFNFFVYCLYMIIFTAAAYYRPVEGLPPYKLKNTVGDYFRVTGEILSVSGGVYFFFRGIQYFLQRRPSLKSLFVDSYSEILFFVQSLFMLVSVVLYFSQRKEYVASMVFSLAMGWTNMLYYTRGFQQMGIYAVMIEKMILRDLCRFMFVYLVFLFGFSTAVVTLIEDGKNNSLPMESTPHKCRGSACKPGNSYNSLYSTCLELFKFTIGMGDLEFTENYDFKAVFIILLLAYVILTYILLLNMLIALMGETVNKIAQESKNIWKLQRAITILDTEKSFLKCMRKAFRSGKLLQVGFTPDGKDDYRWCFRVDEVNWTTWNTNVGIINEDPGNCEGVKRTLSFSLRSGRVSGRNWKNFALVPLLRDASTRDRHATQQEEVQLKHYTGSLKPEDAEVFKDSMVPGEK
# assay-text: Antagonist activity at rat TRPV1 expressed in HEK293 cells assessed as inhibition of low pH-induced calcium influx
# Type: functional, cell-based
measured-parameter: pIC50
In simple prose, pIC50 is minus the logarithm base ten of a concentration in moles per litre.

For reference, reported pIC50 for FC(F)(F)c1ccc(Nc2ncnc3sc(Nc4c(Cl)cccc4Cl)nc23)cc1 stands at 8.22

---

# experimental-system: Transient receptor potential cation channel subfamily V member 1 (Rattus norvegicus, UniProt O35433)
# assay-text: Antagonist activity at rat TRPV1 expressed in HEK293 cells assessed as inhibition of capsaicin-induced calcium flux
# Format: functional, cell-based
measured-parameter: IC50 (µM)

NC(=O)c1cc(Cl)c(Nc2nc3c(Nc4ccc(C(F)(F)F)cc4)ncnc3s2)c(Cl)c1 | 0.057

1. NCc1cc(Cl)c(Nc2nc3c(Nc4ccc(C(F)(F)F)cc4)ncnc3s2)c(Cl)c1
2. Cc1nc(Nc2ccc(C(F)(F)F)cc2)c2nc(Nc3c(Cl)cccc3Cl)sc2n1
q: Endpoint returns whichever of 1 and 2 has the numerically higher IC50. Kindly state the label of the option you pick.
a: 1
(1: 0.054 µM, 2: 0.002 µM)

---

# experimental-system: Transient receptor potential cation channel subfamily V member 1 (Rattus norvegicus, UniProt O35433)
# assay-text: Antagonist activity at rat TRPV1 expressed in HEK293 cells assessed as inhibition of capsaicin-induced calcium flux
# Type: functional, cell-based
pIC50: −log10 of the molar value.
measured-parameter: pIC50

CS(=O)(=O)c1ccc(Nc2ncnc3sc(Nc4c(Cl)cccc4Cl)nc23)cc1 | 8.52

1. FC(F)(F)c1ccc(Nc2nc(N3CCOCC3)nc3sc(Nc4c(Cl)cccc4Cl)nc23)cc1
2. CS(=O)(=O)c1nc(Nc2ccc(C(F)(F)F)cc2)c2nc(Nc3c(Cl)cccc3Cl)sc2n1
q: Which entry shows the lesser value of pIC50 here, 1 or 2 ? Your answer should be the label attached to the chosen record.
a: 2

---

# assay-text: Clearance in fasted Sprague-Dawley rat at 0.5 mg/kg, iv and 2 mg/kg, po
# Assay type: ADME, organism-based
# experimental-context: in vivo
measured-parameter: clearance (mL/min/kg)

OCc1cc(Cl)c(Nc2nc3c(Nc4ccc(C(F)(F)F)cc4)ncnc3s2)c(Cl)c1 | 23.3

I. FC(F)(F)c1ccc(Nc2nc(NCCN3CCOCC3)nc3sc(Nc4c(Cl)cccc4Cl)nc23)cc1
II. CS(=O)(=O)c1ccc(Nc2ncnc3sc(Nc4c(Cl)cccc4Cl)nc23)cc1
q: Which is greater in clearance, the first item I or the second item II ? Refer to your chosen item by its label in the answer.
a: II

---

# experimental-system: Transient receptor potential cation channel subfamily V member 1 (Rattus norvegicus)
# assay-text: Antagonist activity at rat TRPV1 expressed in HEK293 cells assessed as inhibition of capsaicin-induced calcium flux
# Assay type: functional, cell-based
measured-parameter: IC50 (nM)

Look over these answered cases.
CSc1ccc(Nc2ncnc3sc(Nc4c(Cl)cccc4Cl)nc23)cc1 | 12
FC(F)(F)c1ccc(Nc2ncnc3sc(Nc4ccccc4C(F)(F)F)nc23)cc1 | 37
NS(=O)(=O)c1ccc(Nc2ncnc3sc(Nc4c(Cl)cccc4Cl)nc23)cc1 | 590
FC(F)(F)c1ccc(Nc2ncnc3c2CCN(c2ncccc2C(F)(F)F)C3)cc1 | 71
N#Cc1cc(Cl)c(Nc2nc3c(Nc4ccc(C(F)(F)F)cc4)ncnc3s2)c(Cl)c1 | 53

A. CSc1ccccc1Nc1nc2c(Nc3ccc(C(F)(F)F)cc3)ncnc2s1
B. CC(C)c1ccc(Nc2ncnc3sc(Nc4c(Cl)cccc4Cl)nc23)cc1
q: Form field 'greater IC50' accepts A or B ; which applies? In your reply, give the label of the chosen option.
a: A
(A: 26 nM, B: 3 nM)

---

# Tested on: Rattus norvegicus
# assay-text: AUC (infinity) in fasted Sprague-Dawley rat at 2 mg/kg, po
# Format: ADME, organism-based, Plasma
# Parameters: time infinity, dose 2 mg/kg, route oral
# experimental-context: in vivo
measured-parameter: AUC (ng·h/mL)

A. FC(F)(F)c1ccc(Nc2nc(NCCN3CCOCC3)nc3sc(Nc4c(Cl)cccc4Cl)nc23)cc1
B. OCc1cc(Cl)c(Nc2nc3c(Nc4ccc(C(F)(F)F)cc4)ncnc3s2)c(Cl)c1
q: Please indicate which entry, A or B , has the lower recorded AUC value. When you have decided, please share the label of that item.
a: A

---

# assay-text: Aqueous solubility in fasted-state simulated intestinal fluid at pH 6.8 after 3 days by HPLC
# Assay type: physicochemical
measured-parameter: solubility at 72 h (µg/mL)

A. FC(F)(F)c1ccc(Nc2ncnc3sc(Nc4c(Cl)cccc4Cl)nc23)cc1
B. FC(F)(F)c1ccc(Nc2nc(NCCN3CCOCC3)nc3sc(Nc4c(Cl)cccc4Cl)nc23)cc1
q: Could you please tell me which of these two has the higher solubility at 72 h: A or B ? Identify your pick by its label.
a: B
(B: 10 µg/mL, A: 2 µg/mL)

---

# assay-text: Aqueous solubility in simulated gastric fluid at pH 1.2 after 3 days by HPLC
# Format: physicochemical
measured-parameter: solubility at 72 h (µg/mL)
Lab book: enter the figure in µg/mL, no units written.

The reported value for FC(F)(F)c1ccc(Nc2nc(NCCN3CCOCC3)nc3sc(Nc4c(Cl)cccc4Cl)nc23)cc1 in terms of solubility at 72 h is 116

---

# assay-text: Bioavailability in fasted Sprague-Dawley rat at 0.5 mg/kg, iv and 2 mg/kg, po
# Assay type: ADME, organism-based
# experimental-context: in vivo
measured-parameter: bioavailability (%)

1. FC(F)(F)c1ccc(Nc2nc(NCCN3CCOCC3)nc3sc(Nc4c(Cl)cccc4Cl)nc23)cc1
2. OCc1cc(Cl)c(Nc2nc3c(Nc4ccc(C(F)(F)F)cc4)ncnc3s2)c(Cl)c1
q: Compare the recorded bioavailability of 1 and 2 ; state which is larger. Use the label to indicate which entry you chose.
a: 2

---

# assay-text: Plasma concentration in carrageenan-induced thermal hyperalgesia rat model at 0.3 mg/kg, po after 5 hrs post-carrageenan injection
# Type: ADME, organism-based
# Set-up: dose 0.3 mg/kg, route oral
measured-parameter: concentration at 5 h (nM)
A number alone suffices; assume nM.

GET /value?item= FC(F)(F)c1ccc(Nc2ncnc3sc(Nc4c(Cl)cccc4Cl)nc23)cc1 &field=concentration at 5 h returns 10

---

# assay-text: Tmax in fasted Sprague-Dawley rat at 2 mg/kg, po
# Format: ADME, organism-based
# Parameters: dose 2 mg/kg, route oral
# experimental-context: in vivo
measured-parameter: Tmax (h)

I. FC(F)(F)c1ccc(Nc2nc(NCCN3CCOCC3)nc3sc(Nc4c(Cl)cccc4Cl)nc23)cc1
II. OCc1cc(Cl)c(Nc2nc3c(Nc4ccc(C(F)(F)F)cc4)ncnc3s2)c(Cl)c1
q: Could you please tell me which of these two has the higher Tmax: I or II ? // respond with label for picked entry
a: II
(II: 4 h, I: 2 h)

---

# experimental-system: UniProtKB Q8NER1
# assay-text: Antagonist activity at human TRPV1 expressed in HEK293 cells assessed as inhibition of capsaicin-induced calcium flux
# Type: functional, cell-based
measured-parameter: IC50 (nM)

Sample records with IC50:
CCN(CC)c1nc(Nc2ccc(C(F)(F)F)cc2)c2nc(Nc3c(Cl)cccc3Cl)sc2n1 | 48
NCc1cc(Cl)c(Nc2nc3c(Nc4ccc(C(F)(F)F)cc4)ncnc3s2)c(Cl)c1 | 125
FC(F)(F)c1ccc(Nc2ncnc3sc(Nc4ccccc4C(F)(F)F)nc23)cc1 | 74
Clc1cccc(Cl)c1Nc1nc2c(Nc3ccccc3)ncnc2s1 | 176
FC(F)(F)c1ccc(Nc2ncnc3sc(Nc4ccccc4Cl)nc23)cc1 | 64

I. Cc1ccccc1Nc1nc2c(Nc3ccc(C(F)(F)F)cc3)ncnc2s1
II. FC(F)(F)c1ccc(Nc2nc(N3CCOCC3)nc3sc(Nc4c(Cl)cccc4Cl)nc23)cc1
III. CS(=O)(=O)c1nc(Nc2ccc(C(F)(F)F)cc2)c2nc(Nc3c(Cl)cccc3Cl)sc2n1
IV. FC(F)(F)c1ccc(Nc2nc(N3CCCC3)nc3sc(Nc4c(Cl)cccc4Cl)nc23)cc1
q: Exam item: list the entries in increasing order of IC50. The reply should contain the labels ordered as requested.
a: IV, II, I, III
(IV: 12 nM, II: 30 nM, I: 51 nM, III: 274 nM)

I. CN(C)c1nc(Nc2ccc(C(F)(F)F)cc2)c2nc(Nc3c(Cl)cccc3Cl)sc2n1
II. CSc1ccc(Nc2ncnc3sc(Nc4c(Cl)cccc4Cl)nc23)cc1
q: Lab notebook, comparison: I versus II , higher IC50 goes to which? # answer = label of selected item
a: II
